# target_entity: human oxytocin receptors (Homo sapiens, UniProt P30559)
# Construct: expressed in transfected cells; host or cells: HEK-293, transient expression; lysed and homogenized cells
# Sequence (P30559 1-389): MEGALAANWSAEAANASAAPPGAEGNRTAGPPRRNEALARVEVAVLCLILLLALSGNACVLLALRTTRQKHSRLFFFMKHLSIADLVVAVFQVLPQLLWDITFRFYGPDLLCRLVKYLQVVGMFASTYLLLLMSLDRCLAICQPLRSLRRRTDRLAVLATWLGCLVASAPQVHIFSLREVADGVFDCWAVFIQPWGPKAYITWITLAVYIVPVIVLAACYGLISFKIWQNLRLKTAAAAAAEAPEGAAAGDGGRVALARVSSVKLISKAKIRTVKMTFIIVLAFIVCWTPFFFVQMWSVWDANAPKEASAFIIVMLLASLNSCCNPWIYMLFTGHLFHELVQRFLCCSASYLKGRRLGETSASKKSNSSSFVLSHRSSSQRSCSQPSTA
# assay_text: Oxytocin receptor binding assay
# setup_conditions: selectivity quotient
parameter: Ki(h − OT)/Ki(h − V1b)*

Illustrative cases are given below, each with its answer.
compound: CCOc1ncccc1C1(NC(=O)N2CCC(N3CCN(CC)CC3)CC2)C(=O)N(S(=O)(=O)c2ccc(OC)cc2OC)c2cc(F)c(C#N)cc21 (stereo not drawn)
parameter: Ki(h − OT)/Ki(h − V1b)*
value_reported: +++ (>75)
--
compound: CCOc1ncccc1C1(OC(=O)N2CCN(C3CCN(C)CC3)CC2)C(=O)N(S(=O)(=O)c2ccccc2OC)c2cc(F)c(Cl)cc21 (stereo not drawn)
parameter: Ki(h − OT)/Ki(h − V1b)*
value_reported: +++ (>75)
--
compound: CCOc1ncccc1C1(NC(=O)N2CCN(C3CCN(C)CC3)CC2)C(=O)N(S(=O)(=O)c2ccc(OC)cc2OC)c2cc(F)c(Cl)cc21 (stereo not drawn)
parameter: Ki(h − OT)/Ki(h − V1b)*
value_reported: ++ (25-75)
--
compound: CCOc1ccccc1C1(NC(=O)N2CCC(N3CCN(C)CC3)CC2)C(=O)N(S(=O)(=O)c2ccc(OC)cc2OC)c2cc(F)c(C#N)cc21 (stereo not drawn)
parameter: Ki(h − OT)/Ki(h − V1b)*
value_reported: +++ (>75)
--
compound: CCOc1ccccc1C1(NC(=O)N2CCC(N3CCN(CC)CC3)CC2)C(=O)N(S(=O)(=O)c2ccc(OC)cc2)c2cc(F)c(C#N)cc21 (stereo not drawn)
parameter: Ki(h − OT)/Ki(h − V1b)*
value_reported: +++ (>75)
--
compound: CCOc1ncccc1C1(NC(=O)N2CCC(N3CCN(C)CC3)CC2)C(=O)N(S(=O)(=O)c2ccc(OC)cc2OC)c2cc(F)c(Cl)cc21 (stereo not drawn)
parameter: Ki(h − OT)/Ki(h − V1b)*
value_reported: +++ (>75)

I need Ki(h − OT)/Ki(h − V1b)* for every entry listed below, if you could help.
1. CCOc1ncccc1C1(OC(=O)N2CCN(C3CCN(C)CC3)CC2)C(=O)N(S(=O)(=O)c2ccccc2OC)c2cc(Cl)c(F)cc21 (stereo not drawn)
2. CCOc1ncccc1C1(OC(=O)N2CCN(C3CCN(C)CC3)CC2)C(=O)N(S(=O)(=O)c2ccccc2)c2cc(F)c(C#N)cc21 (stereo not drawn)
3. CCOc1ncccc1C1(NC(=O)N2CCN(C3CCN(CC)CC3)CC2)C(=O)N(S(=O)(=O)c2ccc(OC)cc2)c2cc(F)c(C#N)cc21 (stereo not drawn)
4. CCOc1ncccc1C1(NC(=O)N2CCC(N3CCN(C)CC3)CC2)C(=O)N(S(=O)(=O)c2ccc(OC)cc2OC)c2cc(F)c(C#N)cc21 (stereo not drawn)
5. CCOc1ncccc1C1(NC(=O)N2CCN(C3CCN(C)CC3)CC2)C(=O)N(S(=O)(=O)c2ccc(OC)cc2)c2cc(F)c(C#N)cc21 (stereo not drawn)
6. CCOc1ccccc1C1(NC(=O)N2CCC(N3CCN(C)CC3)CC2)C(=O)N(S(=O)(=O)c2ccc(OC)cc2)c2cc(F)c(C#N)cc21 (stereo not drawn)

["++ (25-75)", "+++ (>75)", "+++ (>75)", "+++ (>75)", "+++ (>75)", "+++ (>75)"]
